Data origin, for the record: ChEMBL document CHEMBL2040736

Tested target: Serine/threonine-protein kinase D2 (Homo sapiens, UniProt Q9BZL6)
Sequence (Q9BZL6 whole entry): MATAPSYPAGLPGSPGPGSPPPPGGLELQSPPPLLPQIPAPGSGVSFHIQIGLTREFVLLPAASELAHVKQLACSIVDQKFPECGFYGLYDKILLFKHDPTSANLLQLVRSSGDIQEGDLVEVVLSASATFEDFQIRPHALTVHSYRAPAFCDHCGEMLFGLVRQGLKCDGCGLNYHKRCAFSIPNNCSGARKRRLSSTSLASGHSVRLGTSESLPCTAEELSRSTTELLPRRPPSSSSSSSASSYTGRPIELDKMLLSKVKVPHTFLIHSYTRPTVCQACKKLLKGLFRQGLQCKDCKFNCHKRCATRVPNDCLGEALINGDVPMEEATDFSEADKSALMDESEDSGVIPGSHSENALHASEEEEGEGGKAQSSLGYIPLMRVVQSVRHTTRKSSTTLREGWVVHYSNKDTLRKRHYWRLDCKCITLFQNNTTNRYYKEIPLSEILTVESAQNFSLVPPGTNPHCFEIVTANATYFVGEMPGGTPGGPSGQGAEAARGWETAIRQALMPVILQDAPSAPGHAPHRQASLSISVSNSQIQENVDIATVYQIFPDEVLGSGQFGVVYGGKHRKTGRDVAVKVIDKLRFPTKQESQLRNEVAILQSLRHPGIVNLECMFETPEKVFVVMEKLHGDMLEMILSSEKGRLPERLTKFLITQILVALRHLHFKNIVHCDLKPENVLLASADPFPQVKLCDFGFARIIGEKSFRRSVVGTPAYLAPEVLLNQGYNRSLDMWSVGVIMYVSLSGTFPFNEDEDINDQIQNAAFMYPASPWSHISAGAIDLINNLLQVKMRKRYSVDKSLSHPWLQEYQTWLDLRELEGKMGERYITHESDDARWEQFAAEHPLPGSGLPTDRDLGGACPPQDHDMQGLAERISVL
Test: Inhibition of PKD2 incubated for 30 mins prior to substrate addition study done at apparent ATP Km for enzyme
Experimental readout: pIC50
Lab note — pIC50 values are minus log10 of concentrations in M.

Problem: Record request: pIC50 value, item "C[C@H](/C=C\C(F)(F)F)Oc1cc(-c2cc(-c3cc(CN(C)C)cs3)cnc2N)ccc1C(N)=O"
Solution: 6.48

====

Tested target: Tyrosine-protein kinase Fyn (Homo sapiens, UniProt P06241)
Sequence (P06241 whole entry): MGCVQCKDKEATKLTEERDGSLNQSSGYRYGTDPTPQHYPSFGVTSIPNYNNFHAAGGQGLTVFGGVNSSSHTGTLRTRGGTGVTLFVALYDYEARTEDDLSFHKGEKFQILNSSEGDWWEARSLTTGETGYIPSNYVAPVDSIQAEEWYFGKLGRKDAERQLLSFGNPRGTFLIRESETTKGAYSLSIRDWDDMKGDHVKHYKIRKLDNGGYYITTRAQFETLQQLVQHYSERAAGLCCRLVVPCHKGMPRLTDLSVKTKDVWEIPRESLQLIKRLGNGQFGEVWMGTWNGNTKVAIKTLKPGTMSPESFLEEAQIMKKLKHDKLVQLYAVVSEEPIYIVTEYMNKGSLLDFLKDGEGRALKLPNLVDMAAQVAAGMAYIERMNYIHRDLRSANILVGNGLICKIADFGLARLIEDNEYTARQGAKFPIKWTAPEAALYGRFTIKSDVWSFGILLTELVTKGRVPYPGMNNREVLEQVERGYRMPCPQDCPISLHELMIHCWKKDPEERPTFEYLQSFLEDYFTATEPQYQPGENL
Experimental readout: IC50 (nM)
Please give a number only; it is taken to be in nM.

Problem: Record request: IC50 value, item "C[C@H](/C=C\C(F)(F)F)Oc1cc(-c2cc(-c3cc(CN(C)C)cs3)cnc2N)ccc1C(N)=O"
Solution: 750

====

Tested target: Serine/threonine-protein kinase Nek2 (Homo sapiens)
Sequence (P51955 whole entry): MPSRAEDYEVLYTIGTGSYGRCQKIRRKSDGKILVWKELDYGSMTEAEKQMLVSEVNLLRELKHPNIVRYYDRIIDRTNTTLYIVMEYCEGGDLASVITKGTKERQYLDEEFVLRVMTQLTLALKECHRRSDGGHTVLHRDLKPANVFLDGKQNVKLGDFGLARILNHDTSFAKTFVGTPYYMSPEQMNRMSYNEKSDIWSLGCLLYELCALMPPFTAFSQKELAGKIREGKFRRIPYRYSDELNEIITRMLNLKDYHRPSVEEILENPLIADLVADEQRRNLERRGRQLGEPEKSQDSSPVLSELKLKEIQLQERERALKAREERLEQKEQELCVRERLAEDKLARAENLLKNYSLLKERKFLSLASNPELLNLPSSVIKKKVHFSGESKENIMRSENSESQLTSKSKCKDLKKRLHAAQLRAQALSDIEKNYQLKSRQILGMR
Experimental readout: IC50

Problem: Record request: IC50 value, item "C[C@H](/C=C\C(F)(F)F)Oc1cc(-c2cc(-c3cc(CN(C)C)cs3)cnc2N)ccc1C(N)=O"
Solution: 800 nM

====

Tested target: UniProtKB P06239
Sequence (P06239 whole entry): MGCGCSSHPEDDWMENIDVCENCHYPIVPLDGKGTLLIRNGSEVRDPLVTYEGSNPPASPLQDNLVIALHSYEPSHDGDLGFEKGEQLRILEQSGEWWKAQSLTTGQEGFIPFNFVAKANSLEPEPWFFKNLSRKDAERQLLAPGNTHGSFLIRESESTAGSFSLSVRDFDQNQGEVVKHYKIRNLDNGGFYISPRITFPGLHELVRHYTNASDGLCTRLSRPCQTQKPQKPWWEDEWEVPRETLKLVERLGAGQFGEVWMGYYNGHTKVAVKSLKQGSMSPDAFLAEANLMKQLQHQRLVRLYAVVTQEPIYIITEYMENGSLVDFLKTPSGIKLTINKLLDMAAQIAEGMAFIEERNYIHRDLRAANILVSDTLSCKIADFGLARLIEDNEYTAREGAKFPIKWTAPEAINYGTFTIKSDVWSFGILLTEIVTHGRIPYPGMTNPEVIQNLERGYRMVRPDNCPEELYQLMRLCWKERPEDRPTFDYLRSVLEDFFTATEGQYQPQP
Experimental readout: pIC50
Lab note — pIC50 values are minus log10 of concentrations in M.

Problem: Record request: pIC50 value, item "C[C@H](/C=C\C(F)(F)F)Oc1cc(-c2cc(-c3cc(CN(C)C)cs3)cnc2N)ccc1C(N)=O"
Solution: 6.96

====

As a worked illustration, we turn to IC50 data collected for Serine/threonine-protein kinase Nek2 (Homo sapiens, UniProt P51955).
Please append the unit to your numeric answer.

Problem: Record request: IC50 value, item CC(Oc1cc(-c2cc(-c3ccc(CN(C)C)s3)cnc2N)ccc1C(N)=O)c1ccccc1C(F)(F)F (racemic)
Solution: 0.047 µM

Problem: And then CC(Oc1cc(-c2nc(-c3cc(CN(C)C)cs3)cnc2N)ccc1C(N)=O)c1ccccc1C(F)(F)F (racemic) , what is it?
Solution: 2.63 µM

Problem: And then "C[C@H](/C=C\C(F)(F)F)Oc1cc(-c2cc(-c3cc(CN(C)C)cs3)cnc2N)ccc1C(N)=O" , what is it?
Solution: 0.022 µM

Problem: And then Cc1cc(-c2cnc(N)c(-c3ccc(C(N)=O)c(OC(C)c4ccccc4C(F)(F)F)c3)c2)sc1CN(C)C (racemic) , what is it?
Solution: 0.047 µM

Problem: And then "COc1cc(-c2cc(-c3cccs3)cnc2N)ccc1C(N)=O" , what is it?
Solution: 10.5 µM

Problem: And then CC(Oc1cc(-c2nc(-c3ccc(CN(C)C)s3)cnc2N)ccc1C(N)=O)c1ccccc1C(F)(F)F (racemic) , what is it?
Solution: 2.68 µM

Problem: And then CC(/C=C\C(F)(F)F)Oc1cc(-c2cc(-c3cc(CN(C)C)cs3)cnc2N)ccc1C(N)=O (racemic) , what is it?
Solution: 0.073 µM

Problem: And then CC(Oc1cc(-c2nc(-c3ccc(CN(C)C)cc3)cnc2N)ccc1C(N)=O)c1ccccc1C(F)(F)F (racemic) , what is it?
Solution: 0.79 µM

====

Tested target: Dual specificity protein kinase TTK (Homo sapiens)
Sequence (P33981 whole entry): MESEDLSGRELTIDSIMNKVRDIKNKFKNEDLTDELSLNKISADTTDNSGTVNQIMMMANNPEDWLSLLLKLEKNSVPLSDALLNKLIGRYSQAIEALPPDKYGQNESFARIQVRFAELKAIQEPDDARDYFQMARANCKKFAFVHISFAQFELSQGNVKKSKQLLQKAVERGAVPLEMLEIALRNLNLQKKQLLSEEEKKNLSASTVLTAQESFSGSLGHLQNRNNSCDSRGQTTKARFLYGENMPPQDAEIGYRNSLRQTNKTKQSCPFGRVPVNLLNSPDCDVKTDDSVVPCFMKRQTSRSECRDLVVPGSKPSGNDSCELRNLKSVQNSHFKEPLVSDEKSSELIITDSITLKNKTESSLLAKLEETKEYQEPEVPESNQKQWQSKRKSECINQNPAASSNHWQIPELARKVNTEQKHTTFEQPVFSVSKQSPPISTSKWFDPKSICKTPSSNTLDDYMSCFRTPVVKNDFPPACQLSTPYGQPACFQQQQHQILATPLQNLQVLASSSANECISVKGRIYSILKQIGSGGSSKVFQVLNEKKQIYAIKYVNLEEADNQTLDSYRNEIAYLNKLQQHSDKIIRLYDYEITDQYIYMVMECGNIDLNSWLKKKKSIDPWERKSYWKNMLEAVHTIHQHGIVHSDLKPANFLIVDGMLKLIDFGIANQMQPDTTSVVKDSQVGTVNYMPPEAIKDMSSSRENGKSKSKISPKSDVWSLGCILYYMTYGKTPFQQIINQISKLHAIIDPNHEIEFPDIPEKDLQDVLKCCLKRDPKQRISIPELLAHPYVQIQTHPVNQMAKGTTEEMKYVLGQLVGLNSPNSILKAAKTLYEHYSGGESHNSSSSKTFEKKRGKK
Test: Inhibition of MPS1 by caliper method
Experimental readout: IC50 (µM)
Please give a number only; it is taken to be in µM.

| Compound | IC50, µM |
| --- | --- |
| C[C@@H](/C=C\C(F)(F)F)Oc1cc(-c2cc(-c3cc(CN(C)C)cs3)cnc2N)ccc1C(N)=O | 7.12 |

Problem: Record request: IC50 value, item "C[C@H](/C=C\C(F)(F)F)Oc1cc(-c2cc(-c3cc(CN(C)C)cs3)cnc2N)ccc1C(N)=O"
Solution: 8.47

Problem: And then CC(Oc1cc(-c2cc(-c3ccc(CN(C)C)cc3)cnc2N)ccc1C(N)=O)c1ccccc1C(F)(F)F (racemic) , what is it?
Solution: 3.06

Problem: And then "C[C@@H](Oc1cc(-c2cc(-c3cc(CN(C)C)cs3)cnc2N)ccc1C(N)=O)c1ccccc1C(F)(F)F" , what is it?
Solution: 4.81

====

Test: Permeability of the compound by PAMPA assay
Assay type: ADME
Experimental readout: permeability (×10⁻⁶ cm/s)
Please give a number only; it is taken to be in ×10⁻⁶ cm/s.

Problem: Record request: permeability value, item CC(/C=C\C(F)(F)F)Oc1cc(-c2cc(-c3cc(CN(C)C)cs3)cnc2N)ccc1C(N)=O (racemic)
Solution: 27.6
